- Target under test: T1, rat α-CGRP (1-37) (rat, C-terminal amide; N-terminal biotin when captured on the SA chip)
- T1 construct: also called rat α (1-37); α-rat
- T1 peptide: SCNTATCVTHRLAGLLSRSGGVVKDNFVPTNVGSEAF
- Experimental details: Biacore, 37°C, Fab over CGRP on SA chip
- Experimental: Biacore assay for affinity determination. […] All Biacore assays were conducted in HBS-EP running buffer (10 mM HEPES pH 7.4, 150 mM NaCl, 3 mM EDTA, 0.005% v/v polysorbate P20). CGRP surfaces were prepared by diluting the N-biotinylated CGRP to a concentration of less than 0.001 mg/mL into HBS-EP buffer and injecting it across the SA sensor chip using variable contact times. […] Samples were typically injected for 1 minute at 100 μL/min and dissociation times of at least 10 minutes were allowed. […]
Readout name: koff (s⁻¹)
The figure you give is taken to be in s⁻¹; do not add the unit.

Query: koff; subject: G1 variant M71 Fab (Fab, V domains shown, Fab; constant domains as m1; printed L561 read as L56I) VH: EVQLVESGGGLVQPGGSLRLSCAASGFTFSNYWISWVRQAPGKGLEWVAEIRSKSDYSATHYAEAVKGRFTISRDNAKNSLYLQMNSLRAEDTAVYYCTVYFDYGLAIQNYWGQGTLVTVSS VL: EIVLTQSPATLSLSPGERATLSCKASKNVGTYVSWYQQKPGQAPRLLIYGASNRYIGIPARFSGSGSGTDFTLTISSLEPEDFAVYYCSQSYNYPYTFGQGTKLEIK 0.00212
